Test: chemical genetic growth profiling, strain panel (AID 1159580);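 also: tested at 20 µM; growth read once vehicle control cultures reached saturation at 30 °C; lower values mean less growth of the strain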
Details: S. cerevisiae deletion strains, growth OD, locus YOL078W, strain AVO1
Screen size: about 5,500 compounds; about 2,000 (36%) were called active. Inconclusive results (about 18%) are left out. Rule as the data show it: active = normalized growth mostly below about 0.91 (no sharp cut-off); inconclusive = no clear call, values can overlap the other calls; inactive = mostly above about 0.92. This is one part of the list.
Please reply with one of these outcomes: active, inactive

These recorded examples may help you get a feel for the data.
compound	labelValue
CC(C)(C)c1cc(C(=O)NNc2cccc(Cl)c2)n(Cc2ccccc2)n1	inactive
CCOC(=O)c1ccc(Cl)c(N=Cc2cc(Cl)cc(Cl)c2O)c1	inactive
CC(C)(C)c1cc(C(=O)Nc2ccc3c(c2)OCO3)n(Cc2ccc(F)cc2)n1	inactive

Record lookup: outcome of this test for Clc1ccc(SCc2ccsc2-c2ncns2)cc1 ? inactive

I would be grateful if you could indicate the recorded call for Cc1nn(-c2cccc(Cl)c2)c2oc(=O)cc(C(F)(F)F)c12 . inactive

Please share the test call associated with CCOC(=O)/C(C#N)=C(\Nc1ccc(C(=O)OCC)cc1)SC . inactive

Identify the outcome logged in this assay for the compound shown: CSc1n[nH]c(-c2cc(C(C)(C)C)oc2C)c1C#N inactive

Test call, this compound: Cc1onc(-c2c(Cl)cccc2Cl)c1C(=O)O/N=C(/N)Cc1ccc(C(C)(C)C)cc1 inactive
